Attribute: LDH.3µM
- Tested on: COS-1 cells
- protocol: LDH assay (necrosis)
- Assay type: cell-based
- condition.set: 3 µM

compound	LDH.3µM
CCN(CC)c1ccc(NC(=O)c2cnsc2)cc1 [Compound 47s]	0.65
CCN(CC)c1ccc(NC(=O)c2csc([N+](=O)[O-])c2)cc1 [Compound 47u]	6.19
CN(C)c1ccc(NCc2c[nH]nc2-c2ccc(F)cc2)cc1	1
CCN(CC)c1ccc(NC(=O)c2c(-c3ccccc3)nnn2CCc2ccccc2)cc1	-0.62
CCC(OC)c1ccc(OCc2c(-c3ccccc3)noc2C)cc1 (racemic) [Compound 34e]	-0.22
CC[N+](O)(CC)c1ccc(NC(=O)c2c(-c3ccccc3)noc2C)cc1	1.95
CCCn1nnc(-c2ccccc2)c1C(=O)Nc1ccc(N(CC)CC)cc1	1.17

###

Attribute: activity at 10 µM
- measurement.target: GATA4–NKX2-5 transcriptional synergy (Mus musculus, UniProt P42582+Q08369)
- Construct: expressed in transfected cells; host or cells: COS-1
- Sequence (Q08369 whole entry): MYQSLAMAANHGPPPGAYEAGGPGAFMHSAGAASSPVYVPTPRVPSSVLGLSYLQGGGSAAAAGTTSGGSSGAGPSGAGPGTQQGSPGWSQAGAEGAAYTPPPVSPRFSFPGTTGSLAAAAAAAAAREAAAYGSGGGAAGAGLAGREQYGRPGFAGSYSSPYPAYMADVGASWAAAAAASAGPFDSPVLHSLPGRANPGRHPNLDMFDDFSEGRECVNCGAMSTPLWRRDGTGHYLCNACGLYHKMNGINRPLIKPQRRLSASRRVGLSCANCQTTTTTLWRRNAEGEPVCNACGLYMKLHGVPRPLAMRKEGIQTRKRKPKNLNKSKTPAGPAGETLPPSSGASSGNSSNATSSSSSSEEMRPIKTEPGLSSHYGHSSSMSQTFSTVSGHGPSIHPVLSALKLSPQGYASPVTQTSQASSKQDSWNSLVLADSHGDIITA
- Sequence (P42582 whole entry): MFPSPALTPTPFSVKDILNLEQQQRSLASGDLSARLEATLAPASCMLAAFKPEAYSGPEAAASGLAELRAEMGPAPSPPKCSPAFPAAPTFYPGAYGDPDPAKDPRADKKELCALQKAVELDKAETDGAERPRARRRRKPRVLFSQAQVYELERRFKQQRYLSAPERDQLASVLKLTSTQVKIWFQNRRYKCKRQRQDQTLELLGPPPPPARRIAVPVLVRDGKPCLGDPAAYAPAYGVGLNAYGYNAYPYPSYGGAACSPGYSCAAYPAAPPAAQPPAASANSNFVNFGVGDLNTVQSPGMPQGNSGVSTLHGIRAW
- protocol: GATA4–NKX2-5 transcriptional synergy luciferase reporter assay (3xNKE reporter, COS-1 cells)
- Format: cell-based
- condition.set: COS-1; GATA4-NKX2-5 transcriptional synergy luciferase reporter assay, compound at 10 µM

compound	reading.unit	activity at 10 µM
Cc1cc(-c2noc(C)c2C(=O)Nc2ccc(Cl)cc2)no1 [SI134]	%	87.7
Cc1ccc(NC(=O)c2c(-c3cc(C)on3)noc2C)cc1 [SI133]	%	86.3
O=C(Nc1ccc(N2CCCS2(=O)=O)cc1)c1c[nH]cc1-c1ccc(Cl)s1 [SI127]	%	82.9

###

- measurement.target: GATA4–NKX2-5 transcriptional synergy (Mus musculus, UniProt P42582+Q08369)
- Construct: expressed in transfected cells; host or cells: COS-1
- protocol: GATA4–NKX2-5 transcriptional synergy luciferase reporter assay (3xNKE reporter, COS-1 cells)
- Type: cell-based
- condition.set: COS-1; 3 µM; luciferase reporter activity relative to control
quantity.kind: activity at 3 µM (%)

compound	reading.unit	obs.value
Cc1onc(-c2ccccc2)c1C(=O)Nc1ccc(OCc2ccccc2)cc1 [SI8]	%	86.4
COc1ccc(-c2cc(NC(=O)c3ccc(C(C)(C)C)cc3)n[nH]2)cc1 [Compound 72]	%	66
CCN(CC)c1ccc(NC(=O)c2csc(C)c2-c2ccccc2)cc1 [Compound 47t]	%	61.5
CCN(CC)c1ccc(NC(=O)c2c(-c3ccncc3)noc2C)cc1 [Compound 39c]	%	81.1
CCN(CC)c1ccc(NC(=O)c2cnoc2-c2ccccc2)cc1 [Compound 47d]	%	65.4

###

- Tested on: COS-1 cells
- protocol: LDH assay (necrosis)
- Format: cell-based
- condition.set: 30 µM
- Protocol: To investigate the toxicity as a potential cause of decreased or increased activity in luciferase reporter gene assays, we tested a set of 40 active compounds in the COS-1 cell line used for the luciferase assays. […] Figure 5 Effects of selected compounds on COS-1 cell viability. (A) Compound-induced necrosis was quantified with the LDH assay after a 24-h compound exposure. […] (B) Cell viability was analyzed with the MTT assay after a 24-h compound exposure. […]
Attribute: LDH.30µM

compound	LDH.30µM
Cc1onc(-c2ccccc2)c1C(=O)Nc1ccc(OCc2ccccc2)cc1	1.97
CCN(CC)c1ccc(NC(=O)c2cnoc2-c2ccccc2)cc1 [Compound 47d]	0.42
CCN(CC)c1ccc(NC(=O)c2c(-c3cccc([N+](=O)[O-])c3)noc2C)cc1 [Compound 39g]	-0.68
CCN(CC)c1ccc(NC(=O)c2c[nH]nc2-c2ccccc2)cc1	-1.15
COc1ccc(-c2cc(N)nn2C(=O)c2c(-c3ccccc3)noc2C)cc1	-2.71
CCN(CC)c1ccc(NC(=O)c2cc(C)oc2-c2ccccc2)cc1	3.27
Cc1onc(-c2ccccc2)c1C(=O)Nc1ccc(C#C[Si](C)(C)C)cc1	1.5
